# System tested: T1, Human BCMA (human, UniProt Q02223 1-54, limits assumed)
# T1 construct: Soluble analyte in SPR; construct not described; also called huBCMA; B-cell maturation antigen
# T1 sequence (looked up): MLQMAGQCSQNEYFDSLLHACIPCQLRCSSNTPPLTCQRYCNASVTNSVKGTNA
# Protocol: SPR, IgG immobilised, 37 C

{"Binder": "L3.PY/L1.AH/H2.HA (antibody, V domains shown, IgG) VH: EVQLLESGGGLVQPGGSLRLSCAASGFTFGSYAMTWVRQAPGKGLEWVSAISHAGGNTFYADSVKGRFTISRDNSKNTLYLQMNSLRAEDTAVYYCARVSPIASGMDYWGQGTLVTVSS VL: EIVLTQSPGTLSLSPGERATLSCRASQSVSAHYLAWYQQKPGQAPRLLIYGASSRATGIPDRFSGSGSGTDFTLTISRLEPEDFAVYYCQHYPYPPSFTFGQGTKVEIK", "T ½, min": 6.37}
{"Binder": "L3.PY/L3.KF/H3.AE (antibody, V domains shown, IgG) VH: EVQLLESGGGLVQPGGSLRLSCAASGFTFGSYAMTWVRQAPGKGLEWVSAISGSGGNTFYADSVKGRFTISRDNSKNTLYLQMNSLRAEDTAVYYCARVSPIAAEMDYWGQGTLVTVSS VL: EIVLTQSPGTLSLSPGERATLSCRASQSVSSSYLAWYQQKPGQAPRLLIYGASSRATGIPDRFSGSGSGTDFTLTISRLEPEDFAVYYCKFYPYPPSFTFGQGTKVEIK", "T ½, min": 7.44}
{"Binder": "L3.PY/L1.FF/P6E01 (antibody, V domains shown, IgG) VH: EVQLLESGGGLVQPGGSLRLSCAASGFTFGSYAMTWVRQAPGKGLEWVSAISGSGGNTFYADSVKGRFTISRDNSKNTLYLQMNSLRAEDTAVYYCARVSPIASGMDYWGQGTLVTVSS VL: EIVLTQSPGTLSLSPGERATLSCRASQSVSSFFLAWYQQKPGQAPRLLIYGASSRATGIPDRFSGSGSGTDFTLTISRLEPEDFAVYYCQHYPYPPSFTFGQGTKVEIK", "T ½, min": 8.18}
